%Inh listing for selected compounds.
Tested on: LATS2
Run parameters: concentration: 1 μM, replicates: in singlicate; n = 1;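 also: KINOMEscan kinase panel screen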

Compound | %Inh, %
CN1C(=O)C(Nc2ccc(Cl)c(C(=O)O)c2)=C(c2ccc(Cl)cc2)C1=O | 15
Cc1ccccc1-n1cnc2c(N)ncnc21 | 3
O=S(=O)(c1ccc(-c2ccnc3[nH]ccc23)cc1)N1CCCC1 | 68
O=C(Nc1n[nH]c2nc(-c3nccs3)c(Br)cc12)C1CC1 | 0
Nc1ncnc2[nH]c(-c3ccccc3)nc12 | 0
Cc1ccc(-c2cc(-c3c[nH]nc3-c3ccccn3)ccn2)cc1 | 6
Fc1cccc(COc2nnc(-c3ccc4c(c3)CCO4)o2)c1 | 0
O=C(Nc1ccc2c(c1)OCO2)NC1CCN(c2ccnc(Nc3ccc(F)cc3)n2)C1 (stereo not shown) | 0
Cc1cccc(-c2nc(-c3ccc(S(C)(=O)=O)cc3)sc2-c2ccnc(NCCc3ccccc3)c2)c1 | 0
CS(=O)(=O)c1ccc(-c2nc3n(c2-c2ccncc2)CCC3)cc1 | 0
CC(C)(C)c1ccc(C(=O)Nc2cn3cc(Cl)ccc3n2)cc1 | 0
O=C(Nc1n[nH]c2nc(-c3nccs3)c(Br)cc12)C1CCCC1 | 0
COc1cccc(NC(=O)NC2CCN(c3ccnc(Nc4ccc(F)cc4)n3)C2)c1 (stereo not shown) | 0

* * *

System: CSNK2A1
Run parameters: concentration: 1 μM, replicates: in singlicate; n = 1
Each item that follows carries a reported %Inh.
Measured attribute: %Inh (%)

Molecule | Assay value
CS(=O)(=O)c1ccc(-c2nc3n(c2-c2ccncc2)CCC3)cc1 [SKF-105942] | 0
Cc1ccccc1-n1cnc2c(N)ncnc21 [SKF-97510] | 0
COc1cc2ncnc(Nc3ccc4nc(-c5ccccc5)[nH]c4c3)c2cc1OC.Cl [GW282450] | 5
Clc1cc(Cl)cc(Nc2ccnc(Nc3cc(Cl)cc(Cl)c3)n2)c1 [GSK175726] | 4
COC(=O)c1c(-c2ccccc2)c2cc(C(=O)O)ccc2c(=O)n1Cc1ccccc1 | 0

* * *

System: ABL1-phosphorylated
Run parameters: concentration: 1 μM, replicates: in singlicate; n = 1
Reported %Inh values follow for various compounds

Compound | Unit | %Inh
O=C(Nc1n[nH]c2nc(-c3nccs3)c(Br)cc12)C1CCCC1 [SB-742609] | % | 1
Cc1cccc(-c2nc(C)cc(Nc3ccncc3)n2)n1 [GSK257997] | % | 0
Cc1ccc(-c2cc(-c3c[nH]nc3-c3ccccn3)ccn2)cc1 [GW684088] | % | 21
Fc1cc(Cl)ccc1Nc1ccnc2cc(I)ccc12 [GW551191] | % | 26
O=C(Nc1n[nH]c2cc(-c3cccc(F)c3F)ccc12)C1CC1 [SB-733894] | % | 40
COc1ccc2nc(-c3cccc(C)n3)nc(Nc3ccncc3)c2c1 [GSK204919] | % | 0
Cn1ccc2ncnc(Oc3ccc(NC(=O)Nc4ccccc4)cc3)c21 | % | 0
Clc1cc(Cl)cc(Nc2ccnc(Nc3cc(Cl)cc(Cl)c3)n2)c1 [GSK175726] | % | 51
Cc1cccc(-c2nc(Nc3ccncc3)c3ccccc3n2)n1 [GW855857] | % | 28
Nc1nc(-c2nccs2)c(-c2ccnc3ccccc23)s1 [GW693542] | % | 6
Cc1ccc(C(=O)Nc2ccc(Nc3ccnc4cc(-c5ccccn5)ccc34)cc2O)cc1.Cl [GW440146] | % | 31
CSc1nn2c(=O)cc(N3CCOCC3)nc2n1Cc1cccc(C(F)(F)F)c1C [GSK2363608] | % | 0
NC(=O)c1nnc2ccccc2c1N | % | 6
CC(=O)Nc1nc2cnc(Nc3cc(NC(=O)c4cccc(CCC#N)c4)ccc3C)nc2s1 | % | 29
Cc1cccc(-c2cc(Nc3ccncc3)c3ccccc3n2)n1 [GSK223675] | % | 0
Cl.Oc1ccc(-c2nc(-c3ccccc3)[nH]c2-c2ccncc2)cc1 [SB-428218] | % | 56
O=C1NC(=O)C(N2CCc3ccccc32)=C1c1ccccc1Cl [SB-373598] | % | 97.7
Cc1cc(-c2ccc3c(c2)CC[C@@H](N[C@@H](C)c2ccccc2)C3)cnc1N.Cl [GW412617] | % | 9
CCCc1ccc(S(=O)(=O)NC2CCN(c3ccnc(Nc4ccc(F)cc4)n3)C2)cc1 (stereo not drawn) [GSK1379715] | % | 0
COc1ccccc1CNC(=O)c1cc(C(=O)c2ccccc2C)c[nH]1 [GSK364507] | % | 0
COC(=O)c1c(-c2ccccc2)c2cc(C(=O)O)ccc2c(=O)n1Cc1ccccc1 | % | 7
COC(=O)c1c(-c2ccccc2)c2cc(OC)ccc2c(=O)n1Cc1ccccc1 | % | 0
O=C(Nc1ccc2c(c1)OCO2)NC1CCN(c2ccnc(Nc3ccc(F)cc3)n2)C1 (stereo not drawn) [GSK1379724] | % | 0
Cc1c(O)cccc1Nc1ccnc2ccc(C(F)(F)F)cc12.Cl [GW466413] | % | 70
COc1cc2ncn(-c3cc(OCC4CCCO4)c(C(N)=O)s3)c2cc1OC (stereo not drawn) [GSK204607] | % | 0
Cc1ccc(NC(=O)Nc2cc(C(C)(C)C)nn2-c2ccccc2)cc1 [GSK1014915] | % | 2
Cc1cccc(-c2nc(Nc3ccc4[nH]ncc4c3)c3ccccc3n2)n1 [GW857175] | % | 14
COc1cccc(-c2cc(-c3c[nH]nc3-c3ccccn3)ccn2)c1 [GW680338] | % | 3
CCn1c(-c2ccccn2)nc2cnccc21 [SB-736398] | % | 4
COc1cccc(NC(=O)NC2CCN(c3ccnc(Nc4ccc(F)cc4)n3)C2)c1 (stereo not drawn) [GSK1379721] | % | 0
Nc1ncnc2[nH]c(-c3ccccc3)nc12 [AH5015] | % | 44
Fc1cc(Cl)ccc1Nc1ccnc2cc(-c3ccc(CN4CCCCC4)o3)ccc12 [GW560116] | % | 49
Cc1cccc(-c2nc(Nc3cccc(C(N)=O)c3)c3ccccc3n2)n1 [GW876019] | % | 20
Cl.NC(=O)c1cccc(Nc2nccc(Nc3ccc(Oc4cccc(Cl)c4)c(Cl)c3)n2)c1 [GW659008] | % | 0
CCn1c(-c2cccnc2O)nc2cnccc21 [SB-736715] | % | 0
Cc1ccccc1-n1cnc2c(N)ncnc21 [SKF-97510] | % | 3

* * *

Measured %Inh of individual entries
Test system: TRKB
Run parameters: concentration: 1 μM, replicates: in singlicate; n = 1

Smiles record | Tested target | %Inh (%)
COc1ccc(C2=C(Nc3cccc(C(=O)O)c3)C(=O)NC2=O)cc1 | TRKB | 0
Cn1ccc2ncnc(Oc3ccc(NC(=O)Nc4ccccc4)cc3)c21 | TRKB | 0
CCn1c(-c2cccnc2O)nc2cnccc21 | TRKB | 3
Cc1cccc(-c2nc(Nc3cccc(C(N)=O)c3)c3ccccc3n2)n1 | TRKB | 0
O=C(Nc1n[nH]c2nc(-c3nccs3)c(Br)cc12)C1CC1 | TRKB | 62
COc1cccc(-c2cc(-c3c[nH]nc3-c3ccccn3)ccn2)c1 | TRKB | 0

* * *

System: MLK2
Run parameters: concentration: 1 μM, replicates: in singlicate; n = 1
Parameter: %Inh. Scope: all listed entries.
Measured attribute: %Inh (%)

Compound | Measured attribute | Assay value
COc1ccc(CNC(=O)NC2CCN(c3ccnc(Nc4cc(OC)c(OC)c(OC)c4)n3)C2)cc1 (centres unmarked) [GSK1379748] | %Inh | 21
Cc1cccc(-c2cc(Nc3ccncc3)c3ccccc3n2)n1 [GSK223675] | %Inh | 0
CCn1c(-c2cccnc2O)nc2cnccc21 [SB-736715] | %Inh | 0
Cc1ccc(C(=O)Nc2ccc(Nc3ccnc4cc(-c5ccccn5)ccc34)cc2O)cc1.Cl [GW440146] | %Inh | 0
COc1ccc(Nc2nccc(NCCNC(=O)Nc3ccccc3F)n2)cc1 [GSK1379901] | %Inh | 0

* * *

System: ACVRL1
Run parameters: concentration: 1 μM, replicates: in singlicate; n = 1
Let's look at some compounds and their measured %Inh.

Compound | %Inh
Cc1ccc(-c2cc(-c3c[nH]nc3-c3ccccn3)ccn2)cc1 [GW684088] | 0%
Cc1cccc(-c2nc(Nc3ccncc3)c3ccccc3n2)n1 [GW855857] | 65%
Cc1cccc(-c2nc(Nc3cccc(C(N)=O)c3)c3ccccc3n2)n1 [GW876019] | 0%
Cc1cc(N2Cc3ccccc3C2)nc(Nc2ccc(S(=O)(=O)N3CCOCC3)cc2)n1.Cl [GSK1669917] | 0%
Clc1cc(Cl)cc(Nc2ccnc(Nc3cc(Cl)cc(Cl)c3)n2)c1 [GSK175726] | 43%
CCn1c(-c2cccnc2O)nc2cnccc21 [SB-736715] | 0%
O=S(=O)(c1ccc(-c2ccnc3[nH]ccc23)cc1)N1CCCC1 [GSK846226] | 0%
COc1ccc(Nc2nccc(-c3cccc(NC(=O)c4cc5cc(F)ccc5[nH]4)c3)n2)cc1 [GSK1229782] | 0%
O=C1NC(=O)C(N2CCc3ccccc32)=C1c1ccccc1Cl [SB-373598] | 13%
CC(=O)Nc1nc2cnc(Nc3cc(NC(=O)c4cccc(CCC#N)c4)ccc3C)nc2s1 | 15%
O=C(Nc1n[nH]c2cc(-c3cccc(F)c3F)ccc12)C1CC1 [SB-733894] | 29%
COc1cccc(NC(=O)NC2CCN(c3ccnc(Nc4ccc(F)cc4)n3)C2)c1 (stereo not shown) [GSK1379721] | 0%
COc1ccc(Nc2nccc(NCCNC(=O)Nc3ccccc3F)n2)cc1 [GSK1379901] | 0%
Cl.c1ccc(-c2n[nH]cc2-c2ccnc(-c3ccc(CN4CCOCC4)cc3)c2)nc1 [GW776245] | 0%
CC(C)(C)c1ccc(C(=O)Nc2cn3cc(-c4cccnc4)ccc3n2)cc1 | 0%
CCCc1ccc(S(=O)(=O)NC2CCN(c3ccnc(Nc4ccc(F)cc4)n3)C2)cc1 (stereo not shown) [GSK1379715] | 0%
Cc1ccccc1-n1cnc2c(N)ncnc21 [SKF-97510] | 0%
COc1ccccc1CNC(=O)c1cc(C(=O)c2ccccc2C)c[nH]1 [GSK364507] | 0%
COc1cc2nccc(Nc3ccc(NC(=O)c4ccc(C)cc4)c(O)c3)c2cc1OC.Cl [GW440132] | 0%
Cc1cc(NCC(c2ccccc2)c2ccccc2)nc(NCc2ccc(C(F)(F)F)cc2)n1 [GW497681] | 0%
COc1cc2ncn(-c3cc(OCC4CCCO4)c(C(N)=O)s3)c2cc1OC (stereo not shown) [GSK204607] | 0%
Cl.NC(=O)c1cccc(Nc2nccc(Nc3ccc(Oc4cccc(Cl)c4)c(Cl)c3)n2)c1 [GW659008] | 0%
COc1ccc(CNC(=O)NC2CCN(c3ccnc(Nc4cc(OC)c(OC)c(OC)c4)n3)C2)cc1 (stereo not shown) [GSK1379748] | 0%
Cl.Oc1ccc(-c2nc(-c3ccccc3)[nH]c2-c2ccncc2)cc1 [SB-428218] | 0%
O=C(Nc1ccccc1)Nc1cccc(Oc2ccc3nccn3n2)c1 | 0%
Nc1nc(-c2nccs2)c(-c2ccnc3ccccc23)s1 [GW693542] | 15%
Cc1ccc(NC(=O)Nc2cccc(Cl)c2)cc1-c1ccc(C(=O)Nc2ccncc2)cc1 [GSK1398468] | 0%
CC1=C(C(=O)Nc2cc3cn[nH]c3cc2F)C(c2ccc(C(F)(F)F)cc2)CC(=O)N1 (stereo not shown) [GSK429286] | 0%
